Cited source: the supplement of paper PMC9170038

# Test system: MS2 coat protein
# method-summary: apparent KD of MS2 coat protein; designed switch direction (-1 OFF switch, 1 ON switch): -1; higher = weaker reporter binding
# experimental-setup: Eterna round: R95; input ligand: microRNA oligo, concentration not stated
Class key for apparent KD of MS2 coat protein values: class A (below 20 nM), class B (20 nM to below 40 nM), class C (40 nM or more)

ordered-residues	category
GGUUGGCGAGGAUAUACAUGAGGAUCACCCAUGUGUGAGAAAAAAGUGAGGAAGAAAAGUAGAAGGCGCUGACG [salish99_ex3_r3_007] (puzzle: Exclusion 3)	class C
UCUCGACAUGAGGAUCACCCAUGUCAGGAUAUUGUAUUGGAGGUUUUUUACCUUAUGGCAAGAAGGGAUGUGUG [LRO-Excl1-24] (puzzle: Exclusion 1)	class A
AGUACUAUGCGUGCUGACAUGCGUAGUGCAGCAGGUGUAACAUGAGGAUCACCCAUGUCCUCAUUUGCUCGUCUUAU [Mat - Sensor v3 - Turn-off var 2 - D12] (puzzle: Sensor v3, turn-off variant 2)	class C
CUGAGCAGACGGAGAUCCAACAUGAGGAUCACCCAUGUCUCAAAAGCUUUUUGCUCGUCUUAUCCUCCUCUGCUCUC [Orgeain] (puzzle: Sensor v3, turn-off variant 1)	class B
CUUUUGUGAGGAUAUCAGUAGUAAAUUAAUAAAAUUACUACUGAGAAGGCACAUGAGGAUCACCCAUGUUCCUU [Mat - Exclusion 4 - Mod of Salish - D64] (puzzle: Exclusion 4)	class A
GUAGCUUCGGCUACUACAAGCUUUUUGCUCGUCUUAUUAACAUGAGGAUCACCCAUGUACAAGAGACCUCAUGUAUU [Sensor v3 - turn-off variant 2 - 13] (puzzle: Sensor v3, turn-off variant 2)	class A
GAAAAGGUAGGAUAUACGAAAAAAAAGGGCAGAAAAAAAACACAUGAGGAUCACCCAUGUAGAAGGACCAAAAG [salish99_ex2_r3_065] (puzzle: Exclusion 2)	class B
CUUUUGUGAGGAUAUCAGUAGUAUAUAAAUAAAAUUACUACUGAGAAGGCACAUGAGGAUCACCCAUGUUCCUC [salish99_ex3_r3_076] (puzzle: Exclusion 4)	class B
GAUUAUGCGAGCUUUAGGGACAUGAGGAUCACCCAUGUUCGUCUUAUUAAUCUGGGUGCACUGACAUACCUAAAUCU [JMF 92] (puzzle: Sensor v3, turn-off variant 1)	class C

----------
# Tested on: K4 kissing-loop RNA reporter
# method-summary: apparent KD of K4 kissing-loop reporter; higher = weaker reporter binding
# experimental-setup: Eterna round: R107; input ligand: theophylline 20 uM

ordered-residues	unit-abbrev	apparent KD of K4 kissing-loop reporter
AAACAUCACUGGGAGUGAUGUUCUCAGUGACGAGGACCGGUACGGCCGCCACUCGCGAGAGAUAUAGAUAAGUAAUGACAUCAUU [Excl Tryptophan A V4]	nM	390
AAAGAUCUUCUAGAAACUAGAAGAUCAAGAGAGGAUAUCCGAAUUCGGAGAAGGCUCACUAAGUGAUGUUUGGAGCCAAUGGCAA [AK2 SS FMN A]	nM	1090
GCGCGCGUUUUAGAUACCAGCCAGUGAUGUUGGCGAGGAUUCUGGAGCGUAGUGUCAAAUGGCCCUUGGCAGCUAACACGCGGCU [Zabea]	nM	134
AGGUCACCACUACAGUGAUGUUGUGGAGAGCAGGAUAUGCAGAAAUGCAGAAGGGCUCGCUCUCGGUGACCGAAUGAAACAUUCA [Omei KL FMN A SS A v7]	nM	476
GGUAGCAUGGCGGCCGCCACUUAAUCACUCCAGGAUGAGGAAUAUAAGCAGUGAUGUUGCUAAGUAAGGACCGGGCCAUGCUACC	nM	354
UGUCAUUGGUCGGCCGCCACUUCAUGUAGAGUGAUGUUCUGUAGGACGGAUCGAAAGAUCUGUCGAAGGACCGGGACCGAUGACU [FiskerMod 14 - Jieux - Same State - Tryptophan B]	nM	727
UGACUGGACUGAAGGAGCGCUGAACUCCUAGUGAUGUUAGGACAACGAGACAAAGUCUCGAAGCAGGUAGGUCGCAGUCUAGUCU	nM	152
GGAUAGGACAGAGGAUAUCCUAAAGAGGCAAGAAUAACUUGUCUCAAAUGGAUGACCAGUGAUGUUGGAGAAGGCUGUCCUAUCG [FmnBX 6 - #SwitchBubble #StaticStem]	nM	147
AGAAACUUGUAUGUCGAGUGUGCGCGCGAUACCAGCCAAAUGGAUGGCCCUUGGCAGCGCUGCGAGUGAUGUUCGCCCGCUUGAC [#18 K4 Theophylline A Exclusion]	nM	192
AGUUUAUAGGAGGAUACCAGUACGGAUAAGGUACGUUAAUAGUAGAGUGAUGUUCUAAAGUACCCUUGGCAGCUUAGAUUGAGUU [#27 K4 Theophylline B Exclusion]	nM	133
GCCGUACGCACGGAUACCAGCACUCGUUGAGUGAUGUUCACGGUGUGGUAUUCAACGGGCUGCCCUUGGCAGCCGUGCGUACGGC	nM	139
GCCGUACGCAUGGAUACCAGUCAAGAUCAGUGAUGUUGAUCUUUUAUAGAGCCUUCAUUAGACCCUUGGCAGCCAUGCGUACGGC	nM	373

----------
# System: K4 kissing-loop RNA reporter;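 also: bound reporter read as fluorescence of individual clusters on recovered sequencing chips by microscopy, with normalized cluster intensities fitted with a binding model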
# method-summary: apparent KD of K4 kissing-loop reporter; higher = weaker reporter binding
# experimental-setup: Eterna round: R107; input ligand: tryptophan 2.4 mM
Reported apparent KD of K4 kissing-loop reporter values are given for each entry in this list.
quantity-measured: apparent KD of K4 kissing-loop reporter (µM)

ordered-residues	obs-value
AGAAACUUGUAUGUCGAGUGUGCGCGCGAUACCAGCCAAAUGGAUGGCCCUUGGCAGCGCUGCGAGUGAUGUUCGCCCGCUUGAC [#18 K4 Theophylline A Exclusion]	0.174
UGUGUUUACCUGACUCAGUGAUGUUGAGAAGGAGCGUGCGAAAGCACAGGUAGGUCGCUCAAUCCUUAAUCAGGUGAGCACUAAA [#SwitchBubble 13 #K4Early]	0.359
GUAGACAGACUGCAAGCCUAGUCUACAGACUAGGAUAUCAGGAAACUGAGAAGGAGUCUACUUGCAGUGAUGUUGCAAGAAUAAU [[F]''-[K]'-[F]'-[F1]-[F2]-[K1]-[K2]_Design4]	0.119

----------
# Tested on: MS2 coat protein
# method-summary: apparent KD of MS2 coat protein; designed switch direction (-1 OFF switch, 1 ON switch): -1; higher = weaker reporter binding
# experimental-setup: Eterna round: R95; input ligand: FMN 200 uM
# Lookup of reported apparent KD of MS2 coat protein keyed by entry

ordered-residues	apparent KD of MS2 coat protein (nM)
UCCUUACAUGAGGAUCACCCAUGUCAGGAUAUCUCCUCACUGCGCUUGCGCAGUGAAUAGAGAAGGGACGGGCU [JL ViennaUCT Aner mod 8] (puzzle: Exclusion 1)	36.6
UUACGGCGGAUCGUGGCUUUUUGCUCGUCUUGUGCUACAACAUGAGGAUCACCCAUGUAGAGGUGAUCCGUUGUAUU [Grok-var2-19 mod JAL] (puzzle: Sensor v3, turn-off variant 2)	92.4
CAGUACUGAGGAUAUACAUGAGGAUCACCCAUGUGUUCCGGCUAGGAAACUAGCAAAAGUAGAAGGCAGUACUG [salish99_ex3_r3_079] (puzzle: Exclusion 3)	368
AAACCCUGAGGAUAUACAUAACAACAAAUCCUCACGUGCCAACAUGAGGAUCACCCAUGUAGAAGGCAGGCCCA [Bigegedi] (puzzle: Exclusion 2)	48.4
CAAAACAGAGGAUAUACAUUUCCUCACCGCCAAAUGGCGGAACAUGAGGAUCACCCAUGUAGAAGGCUGGAAAA [Gesous] (puzzle: Exclusion 2)	292

----------
# Tested on: MS2 coat protein
# method-summary: apparent KD of MS2 coat protein; designed switch direction (-1 OFF switch, 1 ON switch): -1; higher = weaker reporter binding
# experimental-setup: Eterna round: R95; input ligand: FMN 200 uM
The label depends only on apparent KD of MS2 coat protein: Condition met if it is at least 80 nM, Condition not met if it is smaller.

ordered-residues	tested-on	category
GGUUGGCGAGGAUAUACAUGAGGAUCACCCAUGUGAGAGAAUAAGUGAGGAAAGAAAAGUAGAAGGCGCUGACG [Mat - Exclusion 3 - Mod of Salish D52] (puzzle: Exclusion 3)	MS2 coat protein	Condition met
GGUUGGCGAGGAUAUACAUGAGGAUCACCCAUGUGAGAGAAAAAAGUGCGGAAGAAAAGUAGAAGGCGCUGACG [salish99_ex3_r3_029] (puzzle: Exclusion 3)	MS2 coat protein	Condition met
GUUAAACAUGAGGAUCACCCAUGUAAGGAUAUGCUGAGGUAGCGCUGACGUGAAUGAAGCAGAAGGUACAAAUG [Mat - Mod of JL D64] (puzzle: Exclusion 1)	MS2 coat protein	Condition not met
UCCAACCCUGUGAGGAUAUCGUCCAUUAUUUGUAACGAGAAGGCACAUGAGGAUCACCCAUGUUUUUUAUUUUU [JR_BMOE4_Sub080] (puzzle: Brourd's mod of Exclusion 4)	MS2 coat protein	Condition met
UUUAAUUUUUUUUUUUUACAAGCUUUUUGCUCGUCUUAUACAUGAGGAUCACCCAUGUAGGUGAAGGAUAAAUUAUC [JMF 27] (puzzle: Sensor v3, turn-off variant 2)	MS2 coat protein	Condition not met
CUGAGCAGACGGAGAUCCAACAUGAGGAUCACCCAUGUCUCAAAAGCUUUUUGCUCGUCUUAUCCUCCUCUGCUCUC [Orgeain] (puzzle: Sensor v3, turn-off variant 1)	MS2 coat protein	Condition not met
CUCCUCAUGGCGCCUAAACACAUGAGGAUCACCCAUGUACAGGCUCUUUGCCGUCUUAUAAUAAAACCGAGGAUGCG [Ageusan] (puzzle: Sensor v3, turn-off variant 1)	MS2 coat protein	Condition not met
GGUUGGCGAGGAUAUACAUGAGGAUCACCCAUGUGAGAGAAAAAACUGAGGAAGAAAAGUAGAAGGCGCUGACG [salish99_ex3_r3_026] (puzzle: Exclusion 3)	MS2 coat protein	Condition met
AUAAGCUUUGAGAUCCUUAACAUGAGGAUCACCCAUGUUCGUCUUAUGAUGGUCUGAUCCCUGAGGAUCGGACCGUU [JL-sv1-2.02 Brourd Mod] (puzzle: Sensor v3, turn-off variant 1)	MS2 coat protein	Condition met
AAGAGGUCAGGAUAUACGGGAAGAGGGAGAAGUAGAGGGUAACAUGAGGAUCACCCAUGUAGAAGGGACUAAGA [JR_Exclu2_Sub073] (puzzle: Exclusion 2)	MS2 coat protein	Condition not met
